- tgt: Transcription factor p65 (Human)
- Sequence (Q04206 whole entry): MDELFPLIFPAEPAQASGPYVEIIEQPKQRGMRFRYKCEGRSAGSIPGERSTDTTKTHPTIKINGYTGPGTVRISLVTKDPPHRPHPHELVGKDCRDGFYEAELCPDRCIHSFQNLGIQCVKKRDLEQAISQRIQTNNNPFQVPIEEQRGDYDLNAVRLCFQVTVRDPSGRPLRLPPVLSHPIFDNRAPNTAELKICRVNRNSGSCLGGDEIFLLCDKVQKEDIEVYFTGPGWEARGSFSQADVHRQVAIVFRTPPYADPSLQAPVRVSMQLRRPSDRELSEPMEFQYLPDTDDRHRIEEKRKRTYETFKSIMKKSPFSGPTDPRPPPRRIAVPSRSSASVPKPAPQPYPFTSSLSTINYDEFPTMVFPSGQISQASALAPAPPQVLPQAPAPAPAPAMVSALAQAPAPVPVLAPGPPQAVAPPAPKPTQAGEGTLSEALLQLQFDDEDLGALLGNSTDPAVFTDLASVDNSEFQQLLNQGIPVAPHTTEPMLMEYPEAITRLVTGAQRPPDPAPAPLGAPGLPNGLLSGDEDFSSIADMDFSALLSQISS
- testDescription: Inhibition of TNF-alpha-stimulated human NF-kappaB p65 RelA subunit nuclear translocation in HUVEC
observedProperty: IC50 (nM)

Here is how some compounds turned out for IC50.
O=S1(=O)Nc2c(ccc3cccnc23)-c2cc(F)ccc21    1700
O=S(=O)(Nc1cccc2cccnc12)c1cccs1    3600

1 = Cc1ccc([N+](=O)[O-])cc1S(=O)(=O)Nc1cccc2cccnc12
2 = O=[N+]([O-])c1ccccc1S(=O)(=O)Nc1cccc2cccnc12
3 = Cc1ccc2c(c1)-c1ccc3cccnc3c1NS2(=O)=O
hey, can you rank those compounds up there by IC50? biggest number first please The reply should contain the labels ordered as requested. 2, 1, 3
